- Test system: Mycobacterium tuberculosis
- Protocol Notes: Cornell M. t heat shock assay; also: in the data most compounds retested in dose-response had high values
- Format: functional, organism-based
- Set-up: dose or concentration left out as unconfirmed
Among all 69,000 compounds or so, about 950 (1.4%) showed an effect of 50% or more. The sample holds strong results, similar compounds and a random draw of the others, so the mix is not that of the screen.
Recorded Percent Effect for the following molecules

# Molecule, Percent Effect [%]
data = [
    ("CCN(CC)C(=O)c1ccc(-c2ccsc2)nc1C", 85.72),
    ("Cc1cc2c(cc1CNC(Cc1cccs1)c1nccs1)OCO2.Cl (stereo not given)", 5.172),
    ("COCCN1CCc2c(cnc(-c3ccoc3)c2C(=O)O)C1.O=C(O)C(F)(F)F", -43.35),
    ("CN1CCc2nc(C3CCCN(C(=O)CC4CCCCC4)C3)ncc2C1 (stereo not given)", -14.45),
    ("COc1cccc(CNCc2ccc(F)cc2Cl)c1O", 10.28),
    ("CC(=O)Nc1cccc(CN2CCCC2C(=O)Nc2nccs2)c1 (stereo not given)", -15.37),
    ("CNc1ncc2c(n1)CN(CCc1ccc(F)cc1)C2=O", -20.93),
    ("O=C(Nc1nccs1)C1CCCN1Cc1ccccn1 (stereo not given)", 103.1),
    ("CCN(CC)C(=O)CN(C)C(=O)c1ccc(-c2ccsc2)nc1C", -2.005),
    ("Fc1ccc(CN2CCC3(CC2)CCN(c2ncccn2)CC3)cc1.O=C(O)C(F)(F)F.O=C(O)C(F)(F)F", -1.526),
    ("Cc1nc(CN2CCOCC3(CCN(c4ncccn4)CC3)C2)cs1.O=C(O)C(F)(F)F", -11.45),
    ("CCNc1ccnc(CN2CCCC2C(=O)Nc2nccs2)c1 (stereo not given)", 13.04),
    ("COCC(=O)N1CCC2(CC1)C(=O)N(Cc1cccnc1)CCN2C.O=C(O)C(F)(F)F.O=C(O)C(F)(F)F", -22.77),
    ("CCc1nc(C2CCCN2CCc2ccccn2)no1 (stereo not given)", 107.9),
    ("O=C(CCC1CCCC1)N1CCC(c2ncc3c(n2)CCNC3)CC1", 14.08),
    ("Cn1cc(C[C@H]2[C@H](O)CCN2CC2CC2)cn1.O=C(O)C(F)(F)F", 6.686),
    ("CSc1ccc(-c2cc(CN)nc3ccnn23)cc1.Cl", 4.059),
    ("CCN(CC(=O)NC(C)C)C(=O)c1ccc(-c2ccsc2)nc1C", -31.64),
    ("O=C(NCc1cnc2n1CCN(CC1CC1)C2)C1CC1.O=C(O)C(F)(F)F", -32.01),
    ("CCC(N)C(=O)N1CCC(OCc2ccc(Cl)c(Cl)c2)CC1.Cl (stereo not given)", 20.26),
]
